Biological target: hERG (KCNH2) (Homo sapiens, UniProt Q12809)
Sequence (Q12809 whole entry): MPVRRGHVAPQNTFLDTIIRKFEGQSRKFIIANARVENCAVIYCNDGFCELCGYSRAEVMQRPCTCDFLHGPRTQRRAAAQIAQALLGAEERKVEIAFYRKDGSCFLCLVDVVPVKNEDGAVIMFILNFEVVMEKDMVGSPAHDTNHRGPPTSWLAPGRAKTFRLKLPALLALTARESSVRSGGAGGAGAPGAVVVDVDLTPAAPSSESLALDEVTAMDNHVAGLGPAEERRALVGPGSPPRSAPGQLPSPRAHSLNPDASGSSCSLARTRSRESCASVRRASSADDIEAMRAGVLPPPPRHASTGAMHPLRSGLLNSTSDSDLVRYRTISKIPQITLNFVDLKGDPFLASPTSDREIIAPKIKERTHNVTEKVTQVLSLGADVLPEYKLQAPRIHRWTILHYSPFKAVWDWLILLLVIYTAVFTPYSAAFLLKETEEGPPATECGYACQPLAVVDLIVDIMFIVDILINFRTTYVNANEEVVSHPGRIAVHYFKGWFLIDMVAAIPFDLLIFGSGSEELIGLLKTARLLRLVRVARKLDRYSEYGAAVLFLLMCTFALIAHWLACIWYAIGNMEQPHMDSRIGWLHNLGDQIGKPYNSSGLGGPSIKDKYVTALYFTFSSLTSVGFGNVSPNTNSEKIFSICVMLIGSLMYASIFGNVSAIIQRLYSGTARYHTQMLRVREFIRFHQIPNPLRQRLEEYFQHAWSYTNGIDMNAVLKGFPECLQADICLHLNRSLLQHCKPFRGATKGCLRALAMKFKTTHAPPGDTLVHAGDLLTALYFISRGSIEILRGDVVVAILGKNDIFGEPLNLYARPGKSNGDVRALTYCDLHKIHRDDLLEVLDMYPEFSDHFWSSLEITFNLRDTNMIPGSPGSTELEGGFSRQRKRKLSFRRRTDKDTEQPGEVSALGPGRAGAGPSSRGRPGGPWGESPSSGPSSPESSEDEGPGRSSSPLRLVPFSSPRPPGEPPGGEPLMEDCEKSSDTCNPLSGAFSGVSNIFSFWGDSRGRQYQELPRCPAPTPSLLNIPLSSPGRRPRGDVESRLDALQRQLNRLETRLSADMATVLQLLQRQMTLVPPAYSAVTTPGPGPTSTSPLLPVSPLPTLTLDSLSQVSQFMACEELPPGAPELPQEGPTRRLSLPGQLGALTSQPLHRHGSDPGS
Experiment: Inhibition of human ERG at 3 uM by patch clamp assay
Rule: inhibition at 3 µM under 80% gives f, otherwise t.

{"structure-as-smiles": "C[C@@H]1CCCN1CCc1ccc(-c2ccc(S(=O)(=O)NCc3ccccc3)cc2)cc1", "tgt": "hERG (KCNH2) (Homo sapiens, UniProt Q12809)", "assigned-class": "t"}
{"structure-as-smiles": "C[C@@H]1CCCN1CCc1ccc(-c2ccc(S(=O)(=O)NC(C)(C)CO)cc2)cc1", "tgt": "hERG (KCNH2) (Homo sapiens, UniProt Q12809)", "assigned-class": "f"}
{"structure-as-smiles": "C[C@@H]1CCCN1CCc1ccc(-c2ccc(S(=O)(=O)NCc3ccncc3)cc2)cc1", "tgt": "hERG (KCNH2) (Homo sapiens, UniProt Q12809)", "assigned-class": "f"}
{"structure-as-smiles": "C[C@@H]1CCCN1CCc1ccc(-c2ccc(S(=O)(=O)NCC3CC3)cc2)cc1", "tgt": "hERG (KCNH2) (Homo sapiens, UniProt Q12809)", "assigned-class": "f"}
{"structure-as-smiles": "COCCNS(=O)(=O)c1ccc(-c2ccc(CCN3CCC[C@H]3C)cc2)cc1", "tgt": "hERG (KCNH2) (Homo sapiens, UniProt Q12809)", "assigned-class": "f"}

The measured values listed here are drawn from ChEMBL document CHEMBL1153532.
